Consider the following binders and their measured Inhibition of PAD4: value at 40 µM inhibitor (0 µM: 67) readings.
Biological target: recombinant human PAD4 (human, UniProt Q9UM07 1-663)
Sequence (Q9UM07 whole entry): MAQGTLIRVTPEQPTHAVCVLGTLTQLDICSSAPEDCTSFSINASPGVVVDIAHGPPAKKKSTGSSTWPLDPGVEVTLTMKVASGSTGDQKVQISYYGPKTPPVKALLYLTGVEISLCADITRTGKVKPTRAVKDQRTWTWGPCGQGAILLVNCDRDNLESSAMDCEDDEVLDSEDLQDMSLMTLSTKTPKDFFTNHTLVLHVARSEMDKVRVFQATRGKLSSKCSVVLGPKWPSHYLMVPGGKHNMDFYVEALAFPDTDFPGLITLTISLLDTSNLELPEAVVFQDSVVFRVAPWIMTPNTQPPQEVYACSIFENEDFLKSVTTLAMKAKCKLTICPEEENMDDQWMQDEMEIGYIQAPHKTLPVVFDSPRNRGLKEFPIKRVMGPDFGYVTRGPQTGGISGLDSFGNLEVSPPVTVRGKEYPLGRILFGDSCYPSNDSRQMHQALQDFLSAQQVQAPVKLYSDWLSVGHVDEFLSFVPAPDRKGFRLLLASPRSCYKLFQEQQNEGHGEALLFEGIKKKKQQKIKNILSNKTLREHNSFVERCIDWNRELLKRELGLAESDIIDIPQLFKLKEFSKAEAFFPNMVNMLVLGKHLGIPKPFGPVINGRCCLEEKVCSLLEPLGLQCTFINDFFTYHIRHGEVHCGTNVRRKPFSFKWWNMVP
Assay: cell-based or functional assay
Square brackets hold non-standard residues; d marks the D form. * marks the point of attachment. Orn(fluoroacetimidoyl) = N=C(CF)NCCC[C@H](N)C(=O)O; 2Naphthylsulfonyl = O=S(=O)(c1ccc2ccccc2c1)*; AEEA = NCCOCCOCC(=O)O
Expressed in %, but write only the number.

Inhibition of PAD4: value at 40 µM inhibitor (0 µM: 67) lookup needed for 2Naphthylsulfonyl-KWH[Orn(fluoroacetimidoyl)]DFF-NH2 (SMILES N=C(CF)NCCC[C@H](NC(=O)[C@H](Cc1c[nH]cn1)NC(=O)[C@H](Cc1c[nH]c2ccccc12)NC(=O)[C@H](CCCCN)NS(=O)(=O)c1ccc2ccccc2c1)C(=O)N[C@@H](CC(=O)O)C(=O)N[C@@H](Cc1ccccc1)C(=O)N[C@@H](Cc1ccccc1)C(N)=O) [0837-30FA] , thanks.
13

Consider the binder Ac-KWH[Orn(fluoroacetimidoyl)]DFF[AEEA]-NH2 (SMILES CC(=O)N[C@@H](CCCCN)C(=O)N[C@@H](Cc1c[nH]c2ccccc12)C(=O)N[C@@H](Cc1c[nH]cn1)C(=O)N[C@@H](CCCNC(=N)CF)C(=O)N[C@@H](CC(=O)O)C(=O)N[C@@H](Cc1ccccc1)C(=O)N[C@@H](Cc1ccccc1)C(=O)NCCOCCOCC(N)=O) [0837-14FA] and give its measured Inhibition of PAD4: value at 40 µM inhibitor (0 µM: 67).
29

Please give the measured Inhibition of PAD4: value at 40 µM inhibitor (0 µM: 67) for this binder: 2Naphthylsulfonyl-KWH[Orn(fluoroacetimidoyl)]DFF[AEEA]-NH2 (SMILES N=C(CF)NCCC[C@H](NC(=O)[C@H](Cc1c[nH]cn1)NC(=O)[C@H](Cc1c[nH]c2ccccc12)NC(=O)[C@H](CCCCN)NS(=O)(=O)c1ccc2ccccc2c1)C(=O)N[C@@H](CC(=O)O)C(=O)N[C@@H](Cc1ccccc1)C(=O)N[C@@H](Cc1ccccc1)C(=O)NCCOCCOCC(N)=O) [0837-28FA]
17

What does the record list as Inhibition of PAD4: value at 40 µM inhibitor (0 µM: 67) for Ac-KWH[Orn(fluoroacetimidoyl)]DFF-NH2 (SMILES CC(=O)N[C@@H](CCCCN)C(=O)N[C@@H](Cc1c[nH]c2ccccc12)C(=O)N[C@@H](Cc1c[nH]cn1)C(=O)N[C@@H](CCCNC(=N)CF)C(=O)N[C@@H](CC(=O)O)C(=O)N[C@@H](Cc1ccccc1)C(=O)N[C@@H](Cc1ccccc1)C(N)=O) [0748-09FA] ?
27
